Measured on: UniProt:Q7Z3E1
Experiment: Enzymatic assay for inhibition of PARP7: TR-FRET displacement of biotinylated Probe A from the TIPARP active site
Measurement context: Table A-1
pIC50: −log10 of the molar value.
Exercise: state measured pIC50 for each of the compounds provided.

Some compounds with recorded pIC50:
O=C(c1cccc(OC[C@H]2c3ccccc3CN2c2cn[nH]c(=O)c2C(F)(F)F)c1)N1CCN(c2ncc(C(F)(F)F)cn2)CC1; ≤ 6.00
O=c1[nH]ncc(N2Cc3cc(OC4CCNCC4)cnc3C2)c1C(F)(F)F; 6.00 to 7.00
N#Cc1ccc(N2CCN(C(=O)[C@@H]3CCC[C@@H](OC[C@@H]4CCCN4c4cn[nH]c(=O)c4C(F)(F)F)C3)CC2)nc1 (single isomer, unassigned) [Example 57 Isomer B]; > 7.00
CN(CC1c2ccccc2CN1c1cn[nH]c(=O)c1C(F)(F)F)c1cccc(C(=O)N2CCN(c3ccccn3)CC2)c1 (stereo not drawn); 6.00 to 7.00

I'm hoping you can list pIC50 for every compound here, please.
1. C[C@@H](COCCC(=O)N1CCN(c2ccc(CC#N)cn2)CC1)Oc1cn[nH]c(=O)c1C(F)(F)F
2. O=C(CCOCCOc1cn[nH]c(=O)c1C(F)(F)F)N1CCN(c2ncc(Cl)cn2)CC1

1. > 7.00
2. > 7.00

* * *

Measured on: PARP7 (Homo sapiens (Human))
Experiment: Enzymatic assay for inhibition of PARP7: TR-FRET displacement of biotinylated Probe A from the TIPARP active site
Measurement context: Table A-1
pIC50: −log10 of the molar value.
Exercise: state measured pIC50 for each of the compounds provided.

O=C(CCNC[C@@H]1c2ccccc2CN1c1cn[nH]c(=O)c1C(F)(F)F)N1CCN(c2ncc(C(F)(F)F)cn2)CC1; > 7.00
CN(C)C1CCN(c2cccc3c2CN(c2cn[nH]c(=O)c2C(F)(F)F)C3)C1 (stereo not drawn); > 7.00

I'm hoping you can list pIC50 for every compound here, please.
1. O=C(CCOC[C@H](CCO)Oc1cn[nH]c(=O)c1C(F)(F)F)N1CCN(c2ncc(Cl)cn2)CC1
2. N#Cc1ccc(N2CCN(C(=O)c3ccnc(OCC4c5ccccc5CN4c4cn[nH]c(=O)c4C(F)(F)F)c3)CC2)nc1 (stereo not drawn)
3. C[C@@H]1CN(c2ncc(C(F)(F)F)cn2)CCN1C(=O)CCOC[C@H](C)Nc1cn[nH]c(=O)c1C(F)(F)F (single isomer, unassigned) [Example 619 Isomer B]
4. N#Cc1ccc(N2CCN(C(=O)CCOC[C@H](CN3CCOCC3)Oc3cn[nH]c(=O)c3C(F)(F)F)CC2)nc1
5. N#Cc1ccc(N2CCN(C(=O)c3cc(OCC4c5ccccc5CN4c4cn[nH]c(=O)c4C(F)(F)F)ccn3)CC2)nc1 (stereo not drawn)

6.00 to 7.00
> 7.00
> 7.00
> 7.00
> 7.00

I'm hoping you can list pIC50 for every compound here, please.
1. N#Cc1ccc(N2CCC3(CC2)CN(C(=O)CCOC[C@@H]2CCCN2c2cn[nH]c(=O)c2C(F)(F)F)C3)nc1
2. N#Cc1ccc(N2CCN(C(=O)CCCOCc3cccc4c3CN(c3cn[nH]c(=O)c3C(F)(F)F)C4)CC2)nc1

6.00 to 7.00
> 7.00

* * *

Exercise: state measured IC50 for each of the molecules provided.
Measured on: PARP7 (Homo sapiens (Human))
Experiment: Enzymatic assay for inhibition of PARP7: TR-FRET displacement of biotinylated Probe A from the TIPARP active site
Format: binding
Measurement context: Table A-1

CC(=O)N1CCC[C@H]2CN(c3cn[nH]c(=O)c3C(F)(F)F)C[C@H]21 [Example 143]; ≥ 1000 nM
CNc1cccc2c1CN(c1cn[nH]c(=O)c1C(F)(F)F)C2 [Example 215]; < 100 nM

I'm hoping you can list IC50 for every molecule here, please.
1. Cc1c(N2Cc3ccc(OC4CCNCC4)cc3C2)cn[nH]c1=O [Example 187]
2. CC(C)Oc1cccc2c1CN(c1cn[nH]c(=O)c1C(F)(F)F)C2 [Example 193]
3. COc1c(N2Cc3cccc(OCCO)c3C2)cn[nH]c1=O [Example 184]
4. N#Cc1ccc(N2CCN(C(=O)CCOC[C@@H]3C[C@@H](N)CN3c3cn[nH]c(=O)c3C(F)(F)F)CC2)nc1 [Example 486]

≥ 1000 nM
< 100 nM
≥ 1000 nM
< 100 nM

* * *

Measured on: PARP7 (Homo sapiens (Human))
Experiment: Enzymatic assay for inhibition of PARP7: TR-FRET displacement of biotinylated Probe A from the TIPARP active site
Measurement context: Table A-1
pIC50: −log10 of the molar value.
Assay readout: pIC50

Some compounds with recorded pIC50:
CC(=O)N1CCC(Oc2ccc3c(n2)CN(c2cn[nH]c(=O)c2C(F)(F)F)C3)CC1; > 7.00
O=c1[nH]ncc(N2Cc3cccc(NCC4CCCO4)c3C2)c1C(F)(F)F (stereo not drawn); 6.00 to 7.00
CN(c1cccc2c1CN(c1cn[nH]c(=O)c1C(F)(F)F)C2)C1CCNCC1; 6.00 to 7.00
N#Cc1ccc(N2CCN(C(=O)C[C@H]3CC[C@H]([C@@H]4CCCN4c4cn[nH]c(=O)c4C(F)(F)F)O3)CC2)nc1 [Example 141D]; 6.00 to 7.00

I'm hoping you can list pIC50 for every compound here, please.
1. CC(=O)Nc1cccc2c1CN(c1cn[nH]c(=O)c1C(F)(F)F)C2
2. CC(=O)N1CCN(C(=O)c2cccc(OC[C@H]3c4ccccc4CN3c3cn[nH]c(=O)c3C(F)(F)F)c2)CC1
3. C[C@@H](COCCC(=O)N1CCC(Nc2ncc(C(F)(F)F)cn2)C1)Nc1cn[nH]c(=O)c1C(F)(F)F (stereo partly drawn)
4. O=C(c1cncc(OC[C@H]2c3ccccc3CN2c2cn[nH]c(=O)c2C(F)(F)F)c1)N1CCN(c2ccc(C(F)(F)F)cn2)CC1
5. C[C@@H](CC(=O)N1CCN(c2ccc(C#N)cn2)CC1)OCCOc1cn[nH]c(=O)c1C(F)(F)F (single isomer, unassigned) [Example 538 Isomer B]

1. 6.00 to 7.00
2. ≤ 6.00
3. 6.00 to 7.00
4. 6.00 to 7.00
5. > 7.00

* * *

Measured on: PARP7 (Homo sapiens (Human), UniProt Q7Z3E1)
Sequence (Q7Z3E1 whole entry): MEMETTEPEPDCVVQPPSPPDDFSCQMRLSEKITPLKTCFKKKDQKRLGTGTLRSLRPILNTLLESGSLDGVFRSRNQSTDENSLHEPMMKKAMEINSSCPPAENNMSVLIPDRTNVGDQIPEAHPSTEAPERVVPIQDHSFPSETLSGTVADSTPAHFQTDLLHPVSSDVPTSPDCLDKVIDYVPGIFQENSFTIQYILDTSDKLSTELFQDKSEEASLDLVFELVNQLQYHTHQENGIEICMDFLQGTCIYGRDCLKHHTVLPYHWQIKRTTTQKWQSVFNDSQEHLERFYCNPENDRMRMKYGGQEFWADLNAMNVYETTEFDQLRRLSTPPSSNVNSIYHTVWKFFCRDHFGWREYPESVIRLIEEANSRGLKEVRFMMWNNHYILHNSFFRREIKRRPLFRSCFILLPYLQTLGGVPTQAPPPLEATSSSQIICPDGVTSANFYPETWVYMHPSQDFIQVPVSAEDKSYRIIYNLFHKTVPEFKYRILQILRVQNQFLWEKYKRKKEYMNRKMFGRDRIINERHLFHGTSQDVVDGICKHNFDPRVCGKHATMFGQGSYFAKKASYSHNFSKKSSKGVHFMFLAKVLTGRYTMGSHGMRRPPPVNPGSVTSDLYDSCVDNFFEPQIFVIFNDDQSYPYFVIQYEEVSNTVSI
Experiment: Enzymatic assay for inhibition of PARP7: TR-FRET displacement of biotinylated Probe A from the TIPARP active site
Measurement context: Table A-1
Assay readout: IC50

N#Cc1ccc(N2CCN(C(=O)CCOCC3CCCCN3c3cn[nH]c(=O)c3Br)CC2)nc1 (stereo not drawn) [Example 131]; 100 to 1000 nM
CN(Cc1ccncc1)Cc1cccc2c1CN(c1cn[nH]c(=O)c1C(F)(F)F)C2 [Example 328]; < 100 nM
COC[C@@H](COCCC(=O)N1CCN(c2ncc(C(F)(F)F)cn2)CC1)Sc1cn[nH]c(=O)c1C(F)(F)F [Example 691]; < 100 nM
Cc1ccc(N2CCN(C(=O)c3cccc(OC[C@@H]4CCCN4c4cn[nH]c(=O)c4C(F)(F)F)c3)CC2)nc1 [Example 446]; < 100 nM
C[C@@H](COCCC(=O)N1CCN(c2cnc(C(F)(F)F)cn2)CC1)Nc1cn[nH]c(=O)c1C(F)(F)F [Example 613]; < 100 nM

I'm hoping you can list IC50 for every compound here, please.
1. N#Cc1ccc(N2CCN(C(=O)c3cccc(OCC4CCN(c5cn[nH]c(=O)c5C(F)(F)F)C4)c3)CC2)nc1 (stereo not drawn) [Example 469]
2. N#Cc1ccc(N2CCN(C(=O)[C@H]3CCC[C@@H](OC[C@@H]4CCCN4c4cn[nH]c(=O)c4C(F)(F)F)C3)CC2)nc1 (single isomer, unassigned) [Example 57 Isomer C]

< 100 nM
100 to 1000 nM

I'm hoping you can list IC50 for every compound here, please.
1. N#Cc1ccc(N2CCN(C(=O)C[C@@H]3CC[C@@H](COc4cn[nH]c(=O)c4C(F)(F)F)N3)CC2)nc1 [Example 639]
2. O=C(c1cncc(OC[C@@H]2c3ccccc3CN2c2cn[nH]c(=O)c2C(F)(F)F)c1)N1CCN(c2ccc(F)cn2)CC1 [Example 386]
3. N#Cc1c(N2Cc3cccc(OC4CCNCC4)c3C2)cn[nH]c1=O [Example 182, formic acid]
4. NCc1cccc2c1CN(c1cn[nH]c(=O)c1C(F)(F)F)C2 [Example 221]
5. C[C@@H](COCCC(=O)N1CCN(c2ncc(Cl)cn2)CC1)Oc1cn[nH]c(=O)c1C(F)(F)F (single isomer, unassigned) [Example 543 Isomer A]
6. C[C@@H](COCCC(=O)N1CCC(Oc2ncc(C(F)(F)F)cn2)C1)Nc1cn[nH]c(=O)c1C(F)(F)F (stereo partly drawn) [Example 716]
7. CC(=O)N1CCC(Oc2cccc3c2CN(c2cn[nH]c(=O)c2C(F)(F)F)C3)CC1 [Example 225]
8. C[C@@H](COCCC(=O)N1CCN(c2cnc(C(F)(F)F)cn2)CC1)Oc1cn[nH]c(=O)c1C(F)(F)F [Example 662]

["≥ 1000 nM", "< 100 nM", "≥ 1000 nM", "≥ 1000 nM", "< 100 nM", "< 100 nM", "< 100 nM", "< 100 nM"]
